FYI, the data here is from PubChem BioAssay.

Exercise: state measured composite z-score for each of the compounds provided.
tgt: Calmodulin-1 (Homo sapiens) (UniProt P0DP23)
method: calcium-bound CALM1 binders on microarrays, profiling panel, artefact control for SMM control-protein annotation, biochemical, small-molecule microarray, Cy5-labelled CALM1, plus calcium (AID 1112);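 further: score merges spot fluorescence with signal to noise from triplicate slides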
details: Cy5-CALM1 binding fluorescence, higher = more signal
Answers are plain numbers.

In the examples that follow, each entry is paired with its recorded composite z-score.
compound: O=C1NC(=O)C2C1C=CC(C(O)c1c(F)cccc1Cl)N2Nc1ccccn1 (configuration not stated)
composite z-score: -0.625
--
compound: COCC(=C=CC[C@H](O)c1cccc(OCCO)c1)C[C@H](O)c1ccccn1
composite z-score: -0.621
--
compound: O=C1OCCC=C[C@H]2OC34C=CCN(c5ccc(Cl)cc5)C(=O)[C@H]3N(CCCCCO)C(=O)[C@@H]4C12 (some centres not stated)
composite z-score: -0.137
--
compound: COCCOC(=O)N1C(=O)[C@@]2(c3cc(C#CC4=CCCCC4)ccc31)[C@H](C(=O)N1CCN(c3ncccn3)CC1)[C@H]1C(=O)O[C@H](c3ccccc3)[C@H](c3ccccc3)N1[C@@H]2c1ccc(O)cc1
composite z-score: 0.727
--
compound: COCCCNC(=O)[C@]1(CCC(=O)OC(C)(C)C)N=C(c2ccc(OCCCO)cc2)O[C@@H]1c1ccccc1
composite z-score: 1
--
compound: CCOC(=O)C[C@H]1[C@H](OC(=O)c2ccc(-c3ccccc3)cc2)[C@@H](NC(=O)C2CCCCC2)c2cc(OCCCO)ccc2N1C(=O)c1ccccc1
composite z-score: -0.0071

Here is another compound to look at.
Query: Supply measured composite z-score of C=CCC(OC(C)=O)[C@@H]1[C@@H](N(Cc2cc3ccccc3o2)C(=O)c2ccc(C)cc2)c2cc(OCCCO)ccc2N1C(=O)Cc1ccc2ccccc2c1 (some centres not stated) in your reply.
Result: -0.147

----------
method: compound binding in COS7 lysate, probe aLAP1, primary screen, cell lysate, small-molecule microarray (AID 1124);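 further: lysate comes from COS7 cells expressing LAP1 and is applied at 0.3 µg/mL; score merges spot fluorescence near 667 nm with signal-to-noise over triplicate slides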
details: probe aLAP1, fluorescence, higher = more signal
Everything with composite z-score lower than 0.6 is rule not met; everything else, including exactly 0.6, is rule met.

Illustrative cases are given below, each with its answer.
structure smiles string: NC(=O)NCC#Cc1ccc2c(c1)[C@]1(C(=O)N2)[C@H](C(=O)O)[C@H]2C(=O)O[C@H](c3ccccc3)[C@H](c3ccccc3)N2[C@@H]1c1ccccc1OCCO
class assignment: rule not met
--
structure smiles string: C=C(CCCC)/C(=C/C[C@@H](OC(C)=O)c1ccc(CO)o1)c1cc(C(=O)OC)ccc1OC
class assignment: rule not met
--
structure smiles string: Cc1c(NC(=O)/C(C#N)=C/C=C/c2ccccc2[N+](=O)[O-])c(=O)n(-c2ccccc2)n1C
class assignment: rule met
--
structure smiles string: [N-]=[N+]=NCc1ccccc1C[C@@]1(C(N)=O)N=C(c2ccc(OCCCO)cc2)O[C@@H]1c1ccccc1CN=[N+]=[N-]
class assignment: rule not met
--
structure smiles string: O=C1O[C@@H](c2ccccc2)[C@@H](c2ccccc2)N2[C@@H](c3ccccc3OCCO)[C@]3(C(=O)Nc4ccc(C#CC5=CCCCC5)cc43)[C@@H](C(=O)NC[C@H](O)c3ccccc3)[C@H]12
class assignment: rule not met
--
structure smiles string: C=CC[C@@H](OC(=O)Nc1ccc(OC)cc1)c1ccc(OCCO)cc1
class assignment: rule not met

Query: Form field: composite z-score at least 0.6? Entry: O=C1C[C@@](C(=O)NCC(F)(F)F)(c2ccc([N+](=O)[O-])cc2)[C@@H](c2ccc(CO)cc2)N1C1CCCCC1
Result: rule met

----------
method: FRG1 promoter luciferase signal modulators, primary screen, FRG1 inhibition for FSHD, cell-based, C2C12 myotubes, firefly/Renilla luciferase, luminescence (AID 1084)
details: higher = more signal, called active from +8 up or from −8 down
parameter measured: z-score
Give bare numbers.

For each of the compounds below, state z-score.
1. CCOC(=O)C1=CC[C@@H](c2cc(Cl)ccc2Cl)N(S(=O)(=O)c2ccc(C)cc2)[C@H]1c1ccc(OC)cc1
2. CC=CC(O)C1C=CC2C(=O)N(C)C(=O)C2N1N1CCCCC1 (configuration not stated)
3. COC(=O)[C@]1(CCS(=O)(=O)c2ccccc2)N=C(c2ccc(OCCCO)cc2)O[C@@H]1c1ccccc1CN=[N+]=[N-]
4. COc1cc2c(cc1OC)CN(C(=O)[C@@H]1[C@H]3C(=O)O[C@H](c4ccccc4)[C@H](c4ccccc4)N3[C@H](c3ccccc3OCCO)[C@@]13C(=O)Nc1ccc(C#CC4(O)CCCCCC4)cc13)CC2
5. CC(C)C(=C=CC[C@H](O)c1ccc(OCCO)cc1)C[C@H](O)c1cc(Cl)cc(Cl)c1O
6. COC(=O)[C@@]1(Cc2ccc(OC)cc2)[C@H]2c3cc(C(=O)N(C)C)n(Cc4nc5ccccc5[nH]4)c3C[C@H]2CN1C(=O)c1ccccc1
7. C=CCOC(=O)[C@H]1[C@@H]2C(=O)O[C@@H](c3ccccc3)[C@@H](c3ccccc3)N2[C@@H](c2ccc(OCCOC(=O)[C@H]3C[C@H]4C(=O)N[C@@H](Cc5ccccc5)C(=O)N4[C@H]3c3ccc(O)cc3)cc2)[C@]12C(=O)Nc1ccc(I)cc12

Result:
1. -1.69
2. 1.89
3. -1.96
4. -0.066
5. -1.66
6. -1.62
7. 0.808

----------
Test system: Plasmodium falciparum Sir2 (PF13_0152, Sir2A)
method: pfSir2 binders on small-molecule microarrays, primary screen, biochemical, small-molecule microarray, 635 nm fluorescence (AID 1098);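 further: score merges spot fluorescence intensity with its signal-to-noise ratio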
details: small-molecule microarray binding, fluorescence 635 nm; higher = more signal
Exercise: state measured composite z-score for each of the compounds provided.
Answers are plain numbers.

In the examples that follow, each entry is paired with its recorded composite z-score.
compound: CN1C(=O)C2C=CC(C(O)c3c(F)cccc3Cl)N(Nc3ccccc3)C2C1=O (configuration not stated)
tgt: Plasmodium falciparum Sir2 (PF13_0152, Sir2A)
composite z-score: 1.54
//
compound: O=C(CS)NCCCCCCNC(=O)[C@H]1C[C@H]2C(=O)N[C@@H](Cc3ccccc3)C(=O)N2[C@H]1c1cccc(OCCO)c1
tgt: Plasmodium falciparum Sir2 (PF13_0152, Sir2A)
composite z-score: 1.62
//
compound: C=C(COC)/C(=C/C[C@@H](OC(=O)c1ccncc1)c1ccc(OCCO)cc1)c1cnc2ccccc2c1
tgt: Plasmodium falciparum Sir2 (PF13_0152, Sir2A)
composite z-score: 0.212

For each of the compounds below, state composite z-score.
1. CC[C@@H]1[C@H]2C3C(=O)N(CC)C(=O)C3CC(=O)[C@H]2[C@H](c2ccc(C)cc2)N1S(=O)(=O)c1ccc(C)cc1 (some centres not stated)
2. C[C@H]1C2=C3C(CC[C@H]4C(OCc5ccc(F)cc5C(F)(F)F)OC[C@](C)([C@@H]34)N(C(=O)OC(C)(C)C)C2)C(CO)C1CO (some centres not stated)
3. CO[C@H]1O[C@H](CO)[C@@H](OC(=O)Nc2ccc(C(F)(F)F)cc2)[C@H](OC(=O)Nc2ccc3c(c2)OCO3)[C@H]1OC(=O)Nc1ccc2c(c1)OCO2

Result:
1. 1.11
2. 0.0402
3. 1.5

Query: Supply measured composite z-score of CCC[C@@H]1C[C@@]1(CCC)[C@@H](NP(=O)(c1ccccc1)c1ccccc1)c1ccc(Cl)cc1 in your reply.
Result: 0.219

----------
method: splicing luciferase reporter signal modulators, primary screen, spliceosome inhibition project, cell-based, HEK293, splice +/- reporter (AID 1101);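 further: HEK293 cells carrying a splicing-competent luciferase reporter gene; test concentration not given here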
details: luminescence, 24 h, higher = more signal, called active from +8 up or from −8 down
parameter measured: z-score
One number for each entry.

compound: C=CCC(OC(C)=O)[C@@H]1[C@@H](N(Cc2ccc(-c3ccccc3)cc2)C(=O)c2cccc3ccccc23)c2cc(OCCCO)ccc2N1C(=O)Cc1ccc2ccccc2c1 (stereo partly drawn)
z-score: -0.862

compound: C=CCOC(=O)[C@@H]1[C@H]2C(=O)O[C@H](c3ccccc3)[C@H](c3ccccc3)N2[C@H](c2ccc(OCCOC(=O)[C@H]3C[C@H]4C(=O)N[C@@H](CCCCN(C)C)C(=O)N4[C@H]3c3cccc(OCCO)c3)cc2)[C@@]12C(=O)Nc1ccc(I)cc12
z-score: 0.348

For each of the compounds below, state z-score.
1. CN(C)CCCNC(=O)[C@@]1(C)c2ccccc2C(=O)N(Cc2cc(C(F)(F)F)cc(C(F)(F)F)c2)[C@H]1c1ccc(CO)cc1
2. C=C(COC)/C(=C/C[C@@H](OC(=O)c1ccncc1)c1ccc(OCCO)cc1)c1cnc2ccccc2c1
3. COCCOC(=O)N1C(=O)[C@@]2(c3cc(C#CC4=CCCCC4)ccc31)[C@H](c1ccccc1OCCO)N1[C@H](c3ccccc3)[C@H](c3ccccc3)OC(=O)[C@H]1[C@@H]2C(=O)N1CCc2cc(OC)c(OC)cc2C1

Result:
1. -1.24
2. -0.275
3. -0.222

For each of the compounds below, state z-score.
1. [N-]=[N+]=NCc1ccccc1C[C@]1(C(=O)NCC(O)CO)N=C(c2ccc(OCCCO)cc2)O[C@H]1c1ccccc1CN=[N+]=[N-] (stereo partly drawn)
2. CC(C)N1CC=CC23O[C@@H]4C=CCOC(=O)[C@@H]4[C@H]2C(=O)N(C(C)CO)[C@@H]3C1=O (stereo partly drawn)
3. CN1C(=O)C2C=CC(C(O)c3c(F)cccc3Cl)N(Nc3ccccc3)C2C1=O (stereo not drawn)
4. COC(=O)[C@@]1(Cc2ccc(OC)cc2)[C@H]2c3cc(C(=O)N(C)C)n(Cc4nc5ccccc5[nH]4)c3C[C@H]2CN1C(=O)c1ccccc1
5. CC(C)CN1C(=O)[C@@]2(Cc3ccccc31)c1ccccc1C(=O)N(Cc1ccccc1C(F)(F)F)[C@H]2c1ccc(CO)cc1
6. CN1C(=O)C2C(C1=O)C1C=C(c3ccc(CO)cc3)C2C(c2cccs2)N1Cc1cccc(OC(F)(F)F)c1 (stereo not drawn)

Result:
1. -0.47
2. 0.408
3. 1.29
4. -1.21
5. -0.596
6. -0.243

For each of the compounds below, state z-score.
1. C[C@H]1C2=C3C(CC[C@H]4C(OCc5ccc(F)cc5C(F)(F)F)OC[C@](C)([C@@H]34)N(C(=O)OC(C)(C)C)C2)C(CO)C1CO (stereo partly drawn)
2. C=C[C@@H](C)[C@H](OC(=O)Nc1ccc(SC)cc1)c1ccc(OCCO)cc1

Result:
[0.509, -1.91]
